Test system: SETVI (Setaria viridis)
Test details: Preemergence herbicidal evaluation
Format: in vivo, (L.) Beau
Measurement setup: Rate 0.1250 kg/ha; preemergence; rated 4-5 weeks after treatment
Result type: SETVI preemergence herbicidal rating
Output: the number by itself.

Consider the worked cases shown below.
Cc1ccsc1-c1nsc2ccc(-n3c(=O)cc(C(F)(F)F)n(C)c3=O)cc12
9.0
Cn1c(C(F)(F)F)cc(=O)n(-c2cc3c(-c4ccccn4)nsc3cc2F)c1=O
9.0
CC(=O)N1CCSC1c1nsc2ccc(-n3c(=O)cc(C(F)(F)F)n(C)c3=O)cc12 (stereo not shown)
7.5

Give reported SETVI preemergence herbicidal rating for `Cc1ccn(-c2nsc3ccc(-n4c(=O)cc(C(F)(F)F)n(C)c4=O)cc23)n1` (SETVI (Setaria viridis))
9.0

Give SETVI preemergence herbicidal rating for `C#CCOC(=O)COc1ccsc1-c1nsc2ccc(-n3c(=O)cc(C(F)(F)F)n(C)c3=O)cc12` tested on SETVI (Setaria viridis).
1.0

Answer with SETVI preemergence herbicidal rating of `Cc1cccnc1-c1nsc2ccc(-n3c(=O)cc(C(F)(F)F)n(C)c3=O)cc12` measured for SETVI (Setaria viridis).
9.0

Provide measured SETVI preemergence herbicidal rating on SETVI (Setaria viridis) for `Cc1nnc(-c2nsc3ccc(-n4c(=O)cc(C(F)(F)F)n(C)c4=O)cc23)s1` please.
9.0

Tell me its SETVI preemergence herbicidal rating on SETVI (Setaria viridis): `COC(=O)COc1ccsc1-c1nsc2ccc(-n3c(=O)cc(C(F)(F)F)n(C)c3=O)cc12`
1.0

Would you please give the reported SETVI preemergence herbicidal rating of `Cc1csc(-c2nsc3ccc(-n4c(=O)cc(C(F)(F)F)n(C)c4=O)cc23)n1` with SETVI (Setaria viridis)?
9.0

Tell me its SETVI preemergence herbicidal rating on SETVI (Setaria viridis): `CCc1cc(-c2nsc3ccc(-n4c(=O)cc(C(F)(F)F)n(C)c4=O)cc23)c(CC)s1`
9.0

Fill: SETVI preemergence herbicidal rating (SETVI (Setaria viridis)) for this compound `Cn1c(C(F)(F)F)cc(=O)n(-c2ccc3snc(C4OCCCO4)c3c2)c1=O`
9.0

Specify the recorded SETVI preemergence herbicidal rating for CCOC(=O)C1CS[C@H](c2nsc3ccc(-n4c(=O)cc(C(F)(F)F)n(C)c4=O)cc23)N1 (stereo partly shown) , system: SETVI (Setaria viridis).
8.0

// fetch SETVI preemergence herbicidal rating; item: Cn1c(C(F)(F)F)cc(=O)n(-c2ccc3snc(C4OCCS4)c3c2)c1=O (stereo not shown) ; system: SETVI (Setaria viridis)
9.0

----------
System: GALAP (Galium aparine)
Test details: Preemergence herbicidal evaluation
Format: in vivo
Measurement setup: Rate 0.1250 kg/ha; preemergence; rated 4-5 weeks after treatment
Hi! Could you tag entries with GALAP preemergence herbicidal rating below 5 as T, and those at or above as F? Much appreciated.

CC1CCOC(c2nsc3ccc(-n4c(=O)cc(C(F)(F)F)n(C)c4=O)cc23)O1 (stereo not drawn) [Compound 37]
F

API: query returns whether the compound falls strictly under 5 in GALAP preemergence herbicidal rating. Query: Cc1ccn(-c2nsc3ccc(-n4c(=O)cc(C(F)(F)F)n(C)c4=O)cc23)n1 [Compound 38]
T

Say whether its GALAP preemergence herbicidal rating is strictly beneath 5. Entry: COC(=O)COc1ccsc1-c1nsc2ccc(-n3c(=O)cc(C(F)(F)F)n(C)c3=O)cc12 [Compound 22]
T

Please let me know if Cc1ccc(-c2nsc3ccc(N4C(=O)C5=C(CCCC5)C4=O)cc23)s1 [Compound 20] shows GALAP preemergence herbicidal rating below 5.
T

Please let me know if Cn1c(C(F)(F)F)cc(=O)n(-c2ccc3snc(C4OCCCS4)c3c2)c1=O (stereo not drawn) [Compound 34] shows GALAP preemergence herbicidal rating below 5.
F

Strictly below 5: is that where GALAP preemergence herbicidal rating of Cc1ccsc1-c1nsc2ccc(-n3c(=O)cc(C(F)(F)F)n(C)c3=O)cc12 [Compound 4] sits?
F

Is the reported GALAP preemergence herbicidal rating for CN(C(=O)c1nsc2ccc(-n3c(=O)cc(C(F)(F)F)n(C)c3=O)cc12)c1ccc(Cl)cc1 [Compound 18] strictly below 5?
T
